# assay.remarks: Cytotoxicity against mouse RAW264.7 cells assessed as inhibition of cell growth at 50 uM after 72 hrs by MTT assay
# Type: cell-based

| smiles.repr | result.units | inhibition at 72 h, 50 µM |
| --- | --- | --- |
| Cc1ccc(NC(=O)Nc2ccc(Nc3c4ccccc4nc4ccc(Cl)cc34)cc2)cc1 | % | 29.2 |
| Cc1ccc(S(=O)(=O)Nc2ccc(Nc3c4ccccc4nc4ccc(Cl)cc34)cc2)cc1 | % | 38.5 |
| O=S(=O)(Nc1ccc(Nc2c3ccccc3nc3ccc(Cl)cc23)cc1)c1ccccc1 | % | 14.5 |
| S=C(Nc1ccccc1)Nc1ccc(Nc2c3ccccc3nc3ccc(Cl)cc23)cc1 | % | 11.7 |
| Cc1ccc2nc3ccccc3c(Nc3ccc(NS(=O)(=O)c4ccccc4)cc3)c2c1 | % | 39.6 |
